- System: L6
- Protocol Text: Cytotoxicity against rat L6 cells after 70 hrs by Alamar Blue assay
- Format: functional, cell-based
- Condition Summary: L6, 70 h
pIC50: −log10 of the molar value.
Label MET when pIC50 >= 6; otherwise NOT MET.

NCCCNc1nc2ccccc2c2[nH]c3ccccc3c12	MET
c1ccc(CNc2nc3ccccc3c3[nH]c4ccccc4c23)cc1	NOT MET
Cn1c2ccccc2c2c(NCCCN)nc3ccccc3c21	MET
Cn1c2ccccc2c2c(NCCCN)nc3ccc(Cl)cc3c21	MET
COc1ccc(Nc2nc3ccccc3c3[nH]c4ccccc4c23)c(OC)c1	NOT MET

Decide: pIC50 of `CN(C)CCCNc1nc2ccccc2c2[nH]c3ccccc3c12` >= 6?
MET

Decide: pIC50 of c1ccc2c(c1)nc(NCC1CCCO1)c1c3ccccc3[nH]c21 (centres undefined) >= 6?
NOT MET

* * *

- Protocol Text: Binding affinity to haematin assessed as inhibition of beta-haematin formation after 5 to 6 hrs by pyridine-ferrichrome-based method
What IC50 was measured for each of the following?
Numbers only, in µM.

The following compounds have reported results that may help.
O=C(NCCCNc1nc2ccccc2c2[nH]c3ccccc3c12)Nc1ccccc1	23.9
NCCCCCCNc1nc2ccccc2c2[nH]c3ccccc3c12	49.6
Cn1c2ccccc2c2c(NCC(C)(C)CN)nc3ccccc3c21	1000

Hi team, please reply with IC50 for each item in this list.
1. S=C(NCCCNc1nc2ccccc2c2[nH]c3ccccc3c12)Nc1ccccc1
2. CS(=O)(=O)NCCCNc1nc2ccccc2c2[nH]c3ccccc3c12
3. O=C(NCCCNc1nc2ccccc2c2[nH]c3ccccc3c12)c1cccs1
4. Cn1c2ccccc2c2c(NCC(C)(C)CN)nc3ccc(Cl)cc3c21
5. NCCCNc1nc2ccc(F)cc2c2[nH]c3ccccc3c12
6. CN(C)CCCNc1nc2ccccc2c2[nH]c3ccccc3c12
7. CC(C)(CN)CNc1nc2ccc(Cl)cc2c2[nH]c3ccccc3c12

[18.5, 118, 24.1, 38.4, 14.3, 83.6, 20.7]

* * *

What selectivity ratio was measured for each of the following?
- Protocol Text: Selectivity index, ratio of IC50 for rat L6 cells to IC50 for erythrocytic stage of chloroquine-sensitive Plasmodium falciparum NF54
- Assay type: toxicity, cell-based
- Condition Summary: read-out: Ratio IC50
Answers are plain numbers.

Clc1nc2ccccc2c2[nH]c3ccccc3c12	18.9
CCN(CC)C(=O)NCCCNc1nc2ccccc2c2[nH]c3ccccc3c12	86.8

Hi team, please reply with selectivity ratio for each item in this list.
1. Cn1c2ccccc2c2c(NCCCN)nc3ccc(F)cc3c21
2. COc1ccc(Nc2nc3ccccc3c3[nH]c4ccccc4c23)c(OC)c1
3. Cn1c2ccccc2c2c(NCC(C)(C)CN)nc3ccc(Br)cc3c21

5.5
48
9.9

Hi team, please reply with selectivity ratio for each item in this list.
1. OCCCNc1nc2ccccc2c2[nH]c3ccccc3c12
2. Cc1ccc2nc(NCCCN)c3c4ccccc4n(C)c3c2c1
3. Cc1ccc2nc(NCCCNC(=O)Nc3ccccc3)c3c4ccccc4[nH]c3c2c1
4. COc1ccc2nc(NCCCNC(=O)Nc3ccccc3)c3c4ccccc4[nH]c3c2c1
5. Cn1c2ccccc2c2c(NCCCN)nc3ccc(Cl)cc3c21
6. O=C(NCCCNc1nc2ccc([N+](=O)[O-])cc2c2[nH]c3ccccc3c12)Nc1ccccc1

1. 3.2
2. 6.1
3. 40.9
4. 88.8
5. 17.5
6. 192

* * *

- Protocol Text: Selectivity index, ratio of IC50 for rat L6 cells to IC50 for erythrocytic stage of chloroquine-sensitive Plasmodium falciparum NF54
- Assay type: toxicity, cell-based
- Condition Summary: read-out: Ratio IC50
Label y when selectivity ratio is strictly below 60; otherwise label n.

Examples with answers:
O=C(NCCCNc1nc2ccccc2c2[nH]c3ccccc3c12)c1cccs1	y
c1ccc2c(c1)nc(N1CCCNCC1)c1c3ccccc3[nH]c21	n
Cn1c2ccccc2c2c(NCC(C)(C)CN)nc3ccc(Cl)cc3c21	y
Cn1c2ccccc2c2c(NCCCN)nc3ccccc3c21	y
Cn1c2ccccc2c2c(NCCCNC(=O)Nc3ccccc3)nc3ccccc3c21	y

Now consider the entry below.
Hello, I'm reviewing records and need to know if selectivity ratio of `NCCCCCCNc1nc2ccccc2c2[nH]c3ccccc3c12` is below 60. Could you check?
n

* * *

- Protocol Text: Binding affinity to haematin assessed as inhibition of beta-haematin formation after 5 to 6 hrs by pyridine-ferrichrome-based method
What pIC50 was measured for each of the following?
Give bare numbers, as −log10 of the molar value.

Cn1c2ccccc2c2c(NCC(C)(C)CN)nc3ccc(Br)cc3c21	4.39

Hi team, please reply with pIC50 for each item in this list.
1. O=C(NCCCCCCNc1nc2ccccc2c2[nH]c3ccccc3c12)Nc1ccccc1
2. Cn1c2ccccc2c2c(NCCCN)nc3ccc(Cl)cc3c21
3. CCN(CC)CCCC(C)Nc1ccnc2cc(Cl)ccc12 (stereo unspecified)
4. COc1ccc2nc(NCCCN)c3c4ccccc4n(C)c3c2c1
5. NCCCCNc1nc2ccccc2c2[nH]c3ccccc3c12
6. COc1ccc2nc(NCCCNC(=O)Nc3ccccc3)c3c4ccccc4[nH]c3c2c1
7. Cc1ccc2nc(NCCCN)c3c4ccccc4[nH]c3c2c1

1: 4.79; 2: 4.55; 3: 4.52; 4: 4.24; 5: 4.21; 6: 4.83; 7: 4.22

Hi team, please reply with pIC50 for each item in this list.
1. CC(C)(CNC(=O)Nc1ccccc1)CNc1nc2ccc(Cl)cc2c2[nH]c3ccccc3c12
2. O=C(NCCCNc1nc2ccc(F)cc2c2[nH]c3ccccc3c12)Nc1ccccc1
3. NCCCCCNc1nc2ccccc2c2[nH]c3ccccc3c12

[4.93, 4.64, 4.09]

* * *

- Protocol Text: Binding affinity to haematin assessed as inhibition of beta-haematin formation after 5 to 6 hrs by pyridine-ferrichrome-based method
What IC50 was measured for each of the following?
Answers are plain numbers, in µM.

The following compounds have reported results that may help.
Cc1ccc2nc(NCCCN)c3c4ccccc4n(C)c3c2c1	29.5
c1ccc2c(c1)nc(NCC1CCCO1)c1c3ccccc3[nH]c21 (stereo not drawn)	148
CN(C)CCCNc1nc2ccc(Br)cc2c2c1c1ccccc1n2C	39.9

Hi team, please reply with IC50 for each item in this list.
1. CC(CN)CNc1nc2ccc(Cl)cc2c2[nH]c3ccccc3c12 (stereo not drawn)
2. NCCCNc1nc2ccc(Cl)cc2c2[nH]c3ccccc3c12
3. c1ccc2c(c1)nc(N1CCCNCC1)c1c3ccccc3[nH]c21
4. CC(CNC(=O)Nc1ccccc1)CNc1nc2ccc(Cl)cc2c2[nH]c3ccccc3c12 (stereo not drawn)

12.7
12.4
171
14.6

Hi team, please reply with IC50 for each item in this list.
1. c1ccc(CNc2nc3ccccc3c3[nH]c4ccccc4c23)cc1
2. CCN(CC)C(=O)NCCCNc1nc2ccccc2c2[nH]c3ccccc3c12
3. Cn1c2ccccc2c2c(NCCCN)nc3ccc(Br)cc3c21

1. 30.6
2. 39.2
3. 26.6

Hi team, please reply with IC50 for each item in this list.
1. O=S(=O)(NCCCNc1nc2ccccc2c2[nH]c3ccccc3c12)c1ccccc1
2. Cc1ccc2nc(NCCCNC(=O)Nc3ccccc3)c3c4ccccc4[nH]c3c2c1
3. NCCCN1CCN(CCCNc2nc3ccccc3c3[nH]c4ccccc4c23)CC1
4. Cn1c2ccccc2c2c(NCCCN)nc3ccccc3c21

[24.2, 17.2, 62.4, 24.2]

* * *

- System: L6
- Protocol Text: Cytotoxicity against rat L6 cells after 70 hrs by Alamar Blue assay
- Assay type: functional, cell-based
- Condition Summary: L6, 70 h
Measured Attribute: pIC50
Answers are plain numbers, as −log10 of the molar value.

The following compounds have reported results that may help.
CC(CNC(=O)Nc1ccccc1)CNc1nc2ccc(Cl)cc2c2[nH]c3ccccc3c12 (stereo not given)	5.39
O=C(NCCCNc1nc2ccc([N+](=O)[O-])cc2c2[nH]c3ccccc3c12)Nc1ccccc1	5.33
Cn1c2ccccc2c2c(NCC(C)(C)CN)nc3ccc(Cl)cc3c21	6.37

Hi team, please reply with pIC50 for each item in this list.
1. COc1ccc2nc(NCCCN)c3c4ccccc4n(C)c3c2c1
2. Clc1nc2ccccc2c2[nH]c3ccccc3c12

1. 6.86
2. 3.71

* * *

- Protocol Text: Binding affinity to haematin assessed as inhibition of beta-haematin formation after 5 to 6 hrs by pyridine-ferrichrome-based method
What pIC50 was measured for each of the following?
Numbers only, as −log10 of the molar value.

Cn1c2ccccc2c2c(NCCCNC(=O)Nc3ccccc3)nc3ccccc3c21	4.64
O=C(NCCCNc1nc2cccc(Br)c2c2[nH]c3ccccc3c12)Nc1ccccc1	4.66
NCCCNc1nc2ccc(Br)cc2c2[nH]c3ccccc3c12	4.71
OCCCNc1nc2ccccc2c2[nH]c3ccccc3c12	3.54

Hi team, please reply with pIC50 for each item in this list.
1. COc1ccc(Nc2nc3ccccc3c3[nH]c4ccccc4c23)c(OC)c1
2. O=C(NCCCNc1nc2ccc(Br)cc2c2[nH]c3ccccc3c12)Nc1ccccc1

1. 4.36
2. 4.86

Hi team, please reply with pIC50 for each item in this list.
1. Cn1c2ccccc2c2c(NCCCN)nc3ccc(F)cc3c21
2. CN(C)CCCNc1nc2ccc(Cl)cc2c2c1c1ccccc1n2C
3. CCN(CC)Cc1cc(Nc2ccnc3cc(Cl)ccc23)ccc1O
4. O=C(NCCCNc1nc2ccc(Cl)cc2c2[nH]c3ccccc3c12)Nc1ccccc1

[4.59, 4.59, 4.96, 4.84]
